Data origin: the supplement of paper PMC8728848

Consider the following binders and their measured glycan array binding signal (z-score) readings.
biological target: Fuc(a1-2)Gal(b1-4)Fuc(a1-3)]GlcNAc(b1-2)Man(a1-3)[Fuc(a1-2)Gal(b1-4)[Fuc(a1-3)]GlcNAc(b1-2)Man(a1-6)]Man(b1-4)GlcNAc(b1-4)GlcNAc; assay: glycan array binding signal (z-score within array); higher = stronger binding; conditions: glycan notation: IUPAC condensed, linker removed
About 410 targets per protein were measured; listed, in parts, are those with the strongest signals and a random draw of the rest.
Recorded Metric: glycan array binding signal (z-score)

{"Binder": "Epa20 (Candida glabrata) (protein) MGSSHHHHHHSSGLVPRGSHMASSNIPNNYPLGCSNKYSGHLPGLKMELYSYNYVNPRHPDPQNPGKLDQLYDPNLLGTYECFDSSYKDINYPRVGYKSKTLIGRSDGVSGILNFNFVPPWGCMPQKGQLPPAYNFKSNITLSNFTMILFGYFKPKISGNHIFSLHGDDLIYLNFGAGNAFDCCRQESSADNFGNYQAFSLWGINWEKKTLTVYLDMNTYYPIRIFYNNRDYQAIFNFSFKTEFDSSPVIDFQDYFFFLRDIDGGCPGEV", "Value": 3.16}
{"Binder": "Protein L(B1-B4) (Finegoldia magna), Q51912 (protein) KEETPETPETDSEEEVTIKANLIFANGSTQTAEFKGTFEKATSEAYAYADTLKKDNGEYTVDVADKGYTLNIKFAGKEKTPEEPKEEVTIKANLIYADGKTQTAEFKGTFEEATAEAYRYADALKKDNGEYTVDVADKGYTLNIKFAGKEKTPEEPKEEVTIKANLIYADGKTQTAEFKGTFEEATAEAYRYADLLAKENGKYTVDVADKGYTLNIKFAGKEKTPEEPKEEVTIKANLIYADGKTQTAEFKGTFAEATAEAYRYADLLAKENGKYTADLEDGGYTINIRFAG", "Value": 1.7}
{"Binder": "HA-11100 (Pseudomonas aeruginosa), Q02G51_PSEAB (protein) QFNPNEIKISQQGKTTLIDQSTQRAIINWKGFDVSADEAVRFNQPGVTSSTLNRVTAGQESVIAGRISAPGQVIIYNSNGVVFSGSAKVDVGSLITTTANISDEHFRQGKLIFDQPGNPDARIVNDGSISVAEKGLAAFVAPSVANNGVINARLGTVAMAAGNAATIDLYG", "Value": 3.58}
